# target.under.test: A9UPE9 PDZ (Monosiga brevicollis)
# Sequence (A9UPE9 7-98): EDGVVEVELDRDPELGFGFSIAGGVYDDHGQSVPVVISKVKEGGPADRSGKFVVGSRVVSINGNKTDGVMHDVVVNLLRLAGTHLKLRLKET
# protocol.description: biochemical
# experimental.setup: KI Values (μM) A9UPE9 PDZ, Table 3; competition FP, reporter 30 nM F*-HPV18 E6, 10.5 μM protein, at least triplicate, fitted with SOLVER
Peptide text beside a SMILES is read from it.
Listed next: entries and their corresponding Ki.

compound: C[C@H](NC(=O)[C@H](CCC(=O)O)NC(=O)[C@H](CO)NC(=O)[C@H](CO)NC(=O)[C@H](CO)NC(=O)[C@@H](N)CCC(N)=O)C(=O)O [GAIP] (H-QSSSEA-OH)
modifier.sign: >
Ki [µM]: 1000

compound: CC(C)C[C@H](NC(=O)[C@H](C)NC(=O)[C@@H](NC(=O)[C@H](CCC(=O)O)NC(=O)[C@H](CC(=O)O)NC(=O)[C@@H](N)CCC(=O)O)[C@@H](C)O)C(=O)O [Peptide A9V7Z4] (H-EDETAL-OH)
modifier.sign: =
Ki [µM]: 580

compound: CC(C)[C@H](NC(=O)[C@@H](NC(=O)[C@H](CO)NC(=O)[C@H](CCC(N)=O)NC(=O)[C@H](CC(N)=O)NC(=O)[C@@H]1CCCN1)C(C)C)C(=O)O [TYRP1] (H-PNQSVV-OH)
modifier.sign: =
Ki [µM]: 97

compound: CC(C)[C@H](NC(=O)[C@H](CCCCN)NC(=O)[C@H](CO)NC(=O)[C@H](CCC(=O)O)NC(=O)[C@H](CO)NC(=O)[C@H](C)N)C(=O)O [Peptide B1AR] (H-ASESKV-OH)
modifier.sign: =
Ki [µM]: 95

compound: CC(C)[C@H](NC(=O)[C@H](CCCCN)NC(=O)[C@H](CO)NC(=O)[C@H](CCC(=O)O)NC(=O)[C@H](CO)NC(=O)[C@@H](N)CCC(=O)O)C(=O)O [GIRK3] (H-ESESKV-OH)
modifier.sign: >
Ki [µM]: 1000

compound: CC(C)C[C@H](NC(=O)[C@H](CCCNC(=N)N)NC(=O)[C@H](CO)NC(=O)[C@H](CCC(=O)O)NC(=O)[C@H](CO)NC(=O)[C@@H](N)CCC(N)=O)C(=O)O [Peptide A9UP44] (H-QSESRL-OH)
modifier.sign: =
Ki [µM]: 64

----------
Listed next: entries and their corresponding Ki.
# target.under.test: UniProt A9UPE9
# protocol.description: biochemical
Peptide text beside a SMILES is read from it.
assay.endpoint: Ki (µM)

compound: CC(C)[C@H](NC(=O)[C@H](CO)NC(=O)[C@H](CO)NC(=O)[C@H](CCC(=O)O)NC(=O)[C@H](CO)NC(=O)CN)C(=O)O [Peptide A9UWP5_MONVE] (H-GSESSV-OH)
assay.endpoint: Ki
recorded.value: 490
--
compound: CC[C@H](C)[C@H](NC(=O)[C@@H](N)C(C)C)C(=O)N[C@@H](C)C(=O)N[C@H](C(=O)N[C@@H](CCC(=O)O)C(=O)N[C@H](C(=O)O)C(C)C)[C@@H](C)O [DLL1/DLL4] (H-VIATEV-OH)
assay.endpoint: Ki
recorded.value: 240

----------
# target.under.test: UniProt:A9UPE9
# protocol.description: biochemical
# experimental.setup: KI Values (μM) A9UPE9 PDZ, Table 3; competition FP, reporter 30 nM F*-HPV18 E6, 10.5 μM protein, at least triplicate, fitted with SOLVER
# Text: Starting with the HPV18 E6 C-terminal sequence, we designed a number of peptides to test specific peptide positions, including HPV16 E6, HPV18 E6, SRETTV, SRETDV, RRETTV, and RRETDV, where underlined residues differ from HPV18 E6. […] Figure 6 The binding isotherms from competition fluorescence polarization experiments of A9UPE9 (left, as labeled), and DLG1-1 (right, as labeled) PDZ domains are shown with the HPV18 E6 variant peptides SRETTV and SRETDV. […]
Peptide text beside a SMILES is read from it.

compound: CC(C)C[C@H](NC(=O)[C@@H](N)CCCNC(=N)N)C(=O)N[C@@H](CCC(N)=O)C(=O)N[C@@H](CCCNC(=N)N)C(=O)N[C@@H](CCCNC(=N)N)C(=O)N[C@@H](CCCNC(=N)N)C(=O)N[C@@H](CCC(=O)O)C(=O)N[C@H](C(=O)N[C@@H](CCC(N)=O)C(=O)N[C@H](C(=O)O)C(C)C)[C@@H](C)O
Ki / µM: 16
//
compound: CC(C)C[C@H](NC(=O)[C@H](CCC(N)=O)NC(=O)[C@@H](NC(=O)[C@H](CCC(=O)O)NC(=O)[C@H](CCCNC(=N)N)NC(=O)[C@H](CCCNC(=N)N)NC(=O)[C@@H](NC(=O)[C@H](CCCNC(=N)N)NC(=O)[C@H](CO)NC(=O)[C@@H](N)CO)[C@@H](C)O)[C@@H](C)O)C(=O)O
Ki / µM: 66
//
compound: CC(C)C[C@H](NC(=O)[C@H](C)NC(=O)[C@@H](NC(=O)[C@H](CCC(=O)O)NC(=O)[C@H](CC(=O)O)NC(=O)[C@@H](N)CCC(N)=O)[C@@H](C)O)C(=O)O [Peptide A9UXE1] (H-QDETAL-OH)
Ki / µM: 460
//
compound: CC(C)C[C@H](NC(=O)[C@H](CC(N)=O)NC(=O)[C@@H](NC(=O)[C@H](CCC(=O)O)NC(=O)[C@H](CC(=O)O)NC(=O)[C@@H](N)Cc1c[nH]c2ccccc12)[C@@H](C)O)C(=O)O [BPIX] (H-WDETNL-OH)
Ki / µM: 330

Origin of measurements: paper PMC8512817
